MEASUREMENT_TARGET: Serine/threonine-protein kinase pim-1 (Homo sapiens)
DETAILS: at 0.1 µM
Attribute: inhibition
A bare number is not enough; add the unit after it.

COMPOUND: O=C(Nc1n[nH]c2cc(-c3ccccc3)ccc12)C1CC1
MEASUREMENT_TARGET: Serine/threonine-protein kinase pim-1 (Homo sapiens)
EXPERIMENTAL_READOUT: inhibition
REPORTED_VALUE: 1.3%

COMPOUND: CN(C)c1ccc2c(c1)/C(=C/Nc1ccc(S(N)(=O)=O)cc1)C(=O)N2
MEASUREMENT_TARGET: Serine/threonine-protein kinase pim-1 (Homo sapiens)
EXPERIMENTAL_READOUT: inhibition
REPORTED_VALUE: 1.26%

COMPOUND: CN1CCN(CCCNc2nc3ccc(Oc4ccc(NC(=O)Nc5cc(C(F)(F)F)ccc5F)cc4)cc3[nH]2)CC1
MEASUREMENT_TARGET: Serine/threonine-protein kinase pim-1 (Homo sapiens);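 note: reported value is the mean inhibition of PIM1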
EXPERIMENTAL_READOUT: inhibition
REPORTED_VALUE: 0.7%

Sample COc1ccc2cc(-c3c(-c4ccncc4)nc(-c4ccc([S+](C)[O-])cc4C)n3C)ccc2c1 (centres undefined) ; inhibition observed: 0.66%

Sample O=C(NCC1CC1)c1ccc(-c2cccc(C(=O)NC3CC3)c2)cc1 ; inhibition observed: 0.15%

Sample N#Cc1ccc(Oc2nccc(-c3c(-c4ccc(F)cc4)ncn3C3CCNCC3)n2)cc1 ; inhibition observed: 1.27%

----------
Attribute: inhibition
MEASUREMENT_TARGET: Tyrosine-protein kinase FRK (Homo sapiens) (UniProt P42685);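 note: values are mean inhibition of PTK5 (FRK) kinase activity from the GSK PKIS screening set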
Sequence (P42685 whole entry): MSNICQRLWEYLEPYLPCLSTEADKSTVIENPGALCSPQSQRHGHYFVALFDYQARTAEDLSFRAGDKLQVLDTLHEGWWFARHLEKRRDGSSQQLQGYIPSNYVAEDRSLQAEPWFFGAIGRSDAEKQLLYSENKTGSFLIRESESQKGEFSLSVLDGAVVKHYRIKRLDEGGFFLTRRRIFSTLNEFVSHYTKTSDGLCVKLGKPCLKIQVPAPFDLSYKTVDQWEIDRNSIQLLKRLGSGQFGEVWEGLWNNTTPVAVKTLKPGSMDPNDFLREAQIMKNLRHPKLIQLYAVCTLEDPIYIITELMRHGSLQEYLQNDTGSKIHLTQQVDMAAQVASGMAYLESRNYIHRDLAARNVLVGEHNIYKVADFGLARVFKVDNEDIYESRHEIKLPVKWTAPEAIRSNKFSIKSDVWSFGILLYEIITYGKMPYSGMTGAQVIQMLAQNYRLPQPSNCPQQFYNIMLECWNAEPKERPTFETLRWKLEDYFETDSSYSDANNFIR
DETAILS: at 0.1 µM
Numbers only; they are read as %.

COMPOUND: Fc1ccc(-c2ncn(C3CCNCC3)c2-c2ccnc(Oc3ccc4c(c3)OCO4)n2)cc1
REPORTED_VALUE: 3.01
--
COMPOUND: O=C(Nc1n[nH]c2cc(-c3ccccc3)ccc12)C1CC1
REPORTED_VALUE: 2.92
--
COMPOUND: C[C@@H](Oc1cc(-n2cnc3ccc(OCC4CCN(C)CC4)cc32)sc1C(N)=O)c1ccccc1Cl
REPORTED_VALUE: 3.53

Sample Cc1ccc(C(=O)NC(C)C)cc1-c1ccc(C(=O)NCC2CC2)cc1 ; inhibition observed: 0.01

Sample COc1cc2ncn(-c3cc(OCc4cccs4)c(C(N)=O)s3)c2cc1OC ; inhibition observed: 1.41

Sample COc1cc2ncn(-c3cc(OCc4ccccc4C(F)(F)F)c(C(C)=O)s3)c2cc1OC ; inhibition observed: 0.97

Sample N#Cc1ccc(Oc2nccc(-c3c(-c4ccc(F)cc4)ncn3C3CCNCC3)n2)cc1 ; inhibition observed: 2.75

Sample O=C(Nc1n[nH]c2cc(-c3cc(F)ccc3F)ccc12)C1CC1 ; inhibition observed: 2.44

----------
System: Platelet-derived growth factor receptor alpha (Homo sapiens), P16234 [V561D]
Sequence (P16234 whole entry V561D): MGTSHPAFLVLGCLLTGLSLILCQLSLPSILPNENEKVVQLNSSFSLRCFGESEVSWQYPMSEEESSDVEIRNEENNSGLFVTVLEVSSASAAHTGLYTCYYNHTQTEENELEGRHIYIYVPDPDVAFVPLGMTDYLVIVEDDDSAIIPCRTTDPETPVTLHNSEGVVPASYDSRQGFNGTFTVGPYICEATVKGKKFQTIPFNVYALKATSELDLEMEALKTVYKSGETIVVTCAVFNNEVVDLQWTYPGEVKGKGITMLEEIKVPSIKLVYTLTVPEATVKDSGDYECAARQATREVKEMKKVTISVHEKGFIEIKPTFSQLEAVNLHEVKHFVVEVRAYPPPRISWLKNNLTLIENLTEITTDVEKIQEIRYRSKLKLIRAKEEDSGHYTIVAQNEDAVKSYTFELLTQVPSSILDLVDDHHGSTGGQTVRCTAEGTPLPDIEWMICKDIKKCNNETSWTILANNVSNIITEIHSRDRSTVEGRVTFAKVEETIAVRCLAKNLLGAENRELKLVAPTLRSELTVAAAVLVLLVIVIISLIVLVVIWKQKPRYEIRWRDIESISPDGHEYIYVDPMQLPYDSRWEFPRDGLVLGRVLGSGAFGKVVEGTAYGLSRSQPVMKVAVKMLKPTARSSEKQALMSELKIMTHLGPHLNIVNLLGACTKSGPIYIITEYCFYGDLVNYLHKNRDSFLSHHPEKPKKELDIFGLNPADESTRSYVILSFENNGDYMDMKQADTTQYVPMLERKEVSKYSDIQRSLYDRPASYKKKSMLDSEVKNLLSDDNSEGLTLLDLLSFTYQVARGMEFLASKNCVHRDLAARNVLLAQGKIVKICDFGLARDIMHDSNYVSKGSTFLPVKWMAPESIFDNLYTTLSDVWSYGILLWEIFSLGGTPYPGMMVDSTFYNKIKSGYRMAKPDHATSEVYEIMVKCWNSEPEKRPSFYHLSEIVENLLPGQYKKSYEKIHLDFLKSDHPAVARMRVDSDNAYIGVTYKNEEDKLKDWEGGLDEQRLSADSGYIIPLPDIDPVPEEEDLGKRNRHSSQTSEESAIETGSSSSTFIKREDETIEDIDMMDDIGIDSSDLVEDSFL
DETAILS: at 0.1 µM
EXPERIMENTAL_READOUT: inhibition
A bare number is not enough; add the unit after it.

Some entries whose results are on file:
LINE_NOTATION: O=C(NCC1CC1)c1ccc(-c2cccc(C(=O)NC3CC3)c2)cc1
inhibition: -0.78%

LINE_NOTATION: COC(=O)Nc1nc2ccc(Sc3ccc(NC(=O)Nc4cc(C(F)(F)F)ccc4F)cc3)cc2[nH]1
inhibition: 11.9%

LINE_NOTATION: COc1cc(Nc2ncc(-c3ccccc3)o2)cc(OC)c1OC
inhibition: 35.7%

LINE_NOTATION: C/C(Nc1ccc(S(N)(=O)=O)cc1)=C1/C(=O)Nc2ccccc21
inhibition: 25%

Now consider the entry below.
Sample COc1ccc(-c2ccc3c(NC(=O)C4CC4)n[nH]c3n2)cc1 ; inhibition observed: 4.3%

meta.source: ChEMBL document CHEMBL1961873
